System: Hek293T
run-description: Primary qHTS to identify gynecologic anti-cancer compounds using libraries of approved drugs and bioactive compounds (AID 1345084); also: nearly all actives have a fitted effect of over 55% in size
condition-notes: Gynecologic cancer cell panel viability, ATPlite luminescence, 48 h, control line for the selectivity index; series mostly up to 57.5 µM
Results filed as inconclusive are left out. Calls of active or inactive are those of the source. Calls follow the shape of the dose curve; as a rule, active = well fitted cell-killing curve with a large enough effect; inconclusive = small, poorly fitted or top-dose-only effect, or effect the other way; inactive = flat fitted curve, though single readings scatter.
Choose the fitting class; nothing outside active, inactive is accepted.

Test call for this molecule, please: CC1CCC/C=C/C(=O)c2c(O)cc(O)cc2CC(=O)O1 (configuration not stated) active

Test call for this molecule, please: Cc1nc(NC(=O)N2CCC[C@H]2C(N)=O)sc1-c1ccnc(C(C)(C)C(F)(F)F)c1 inactive

Test call for this molecule, please: COc1cc(C(N)=O)nc(-c2ccccn2)c1O inactive

Test call for this molecule, please: COc1ccc(Sc2ccc(NC(=O)c3ccccc3Cl)cc2C#N)cc1 inactive

Test call for this molecule, please: C[C@@H](NC(=O)c1ccc(C#Cc2cccc(F)c2)cn1)C(C)(C)O inactive

Test call for this molecule, please: C=C1[C@H]2CC[C@H](C(=O)O)[C@@]23CC[C@H](C3)C1(C)C inactive

Test call for this molecule, please: OC1CCC(Nc2nc(-c3ccccc3)nc3[nH]ccc23)CC1 (configuration not stated) inactive

Test call for this molecule, please: Cn1ncnc1[C@H]1c2n[nH]c(=O)c3cc(F)cc(c23)N[C@@H]1c1ccc(F)cc1 inactive

Test call for this molecule, please: CC1CC(=O)C2=C(C1)C1OC1C1(O)C2C(=O)c2cccc(O)c2C1O (configuration not stated) inactive

Test call for this molecule, please: CN1CC2CN(c3ccc4oc5ccccc5c(=O)c4c3)CC2C1 (configuration not stated) inactive

Test call for this molecule, please: CC(C)(C)Oc1ccc(OCC2Cc3ccccc3CN2C(=O)c2cccc3ccccc23)cc1 (configuration not stated) inactive

Test call for this molecule, please: COc1ccc(C2=NC(c3ccc(Cl)cc3)C(c3ccc(Cl)cc3)N2C(=O)N2CCNC(=O)C2)c(OC(C)C)c1 (configuration not stated) inactive

Test call for this molecule, please: C=CC(=O)Nc1ccc(CN2C(=O)N(c3cc(OC)cc(OC)c3)Cc3cnc(Nc4ccc(N5CCN(C)CC5)cc4)nc32)cc1 inactive

Test call for this molecule, please: CC(C)(O)/C=C/C(=O)[C@](C)(O)[C@H]1[C@H](O)C[C@@]2(C)[C@@H]3CC=C4[C@@H](C[C@H](O[C@@H]5O[C@H](CO)[C@@H](O)[C@H](O)[C@H]5O)C(=O)C4(C)C)[C@]3(C)C(=O)C[C@]12C inactive

Test call for this molecule, please: COCC(c1ccc(C(F)(F)F)cc1)N1CCN(C2(C)CCN(C(=O)c3c(C)ncnc3C)CC2)CC1C (configuration not stated) inactive

Test call for this molecule, please: Cc1cc(-c2cc(OC(=O)c3ccccc3)ccc2Cl)cc2nnc(Nc3ccc(OCCN4CCCC4)cc3)nc12 inactive

Test call for this molecule, please: O=C(N[C@H](Cc1cscn1)C(=O)N[C@@H](CC1CCCCC1)[C@@H](O)[C@@H](O)C1CC1)c1nc2ccccc2[nH]1 inactive

Test call for this molecule, please: Clc1cccc(COc2cncc(N3CCNCC3)n2)c1 inactive

Test call for this molecule, please: CC(C)CCNC(=O)c1ccc2c(c1)nc(Nc1n[nH]c3ccc(-c4ccccc4OC(F)(F)F)cc13)n2C1CCC(O)CC1 (configuration not stated) inactive

Test call for this molecule, please: C=C1C(=O)OC2CC(C)C(CCC(C)O)=CCC12 (configuration not stated) inactive

Test call for this molecule, please: Cc1cnc(-c2ccccc2C(C)C)nc1NCc1ccc(-n2ccnn2)cc1 inactive

Test call for this molecule, please: CC(=O)C1=CCC2C3CC=C4CC(O)CC(O)C4(C)C3C(O)CC12C (configuration not stated) inactive

Test call for this molecule, please: Cc1ccccc1C(C(=O)NC1CCCCC1)N(C(=O)Cn1cnc2ccccc21)c1cccc(F)c1 (configuration not stated) inactive

Test call for this molecule, please: CCN(CC)C(=O)C(c1ccccc1)N1CCN(c2ccc(NC(=O)c3ccccc3-c3cccnc3)cc2F)CC1 (configuration not stated) inactive

Test call for this molecule, please: O=C(c1cc(Cc2n[nH]c(=O)c3ccccc23)ccc1F)N1CCCNCC1 inactive

Test call for this molecule, please: C1=C/COCc2cc(ccc2OCCN2CCCC2)Nc2nccc(n2)-c2cccc(c2)COC/1 active

Test call for this molecule, please: CC(=O)O[C@H]1CC2C(COC(=O)CC(C)C)=CO[C@@H](OC(=O)CC(C)C)C2[C@]12CO2 (some centres not stated) inactive

Test call for this molecule, please: O=C(O)CCc1nccc2c1[nH]c1ccccc12 inactive

Test call for this molecule, please: CC[C@H](C(=O)Nc1ccccc1N1CCCC1)c1ccccc1 inactive

Test call for this molecule, please: Cc1nnc(-c2ccc(-c3ccc(C(=O)Nc4ccc(O)c(N5CCN(C)CC5)c4)cc3)c(C)c2)o1 inactive

Test call for this molecule, please: COc1ccc(C2(N(C)C(=O)c3ccc(NC(=O)c4ccco4)cc3)CCOCC2)cc1 inactive

Test call for this molecule, please: C=C1C(=O)OC2CC3(C)C(O)C(=O)C=C(C)C3CC12 (configuration not stated) inactive

Test call for this molecule, please: CC#CCn1c(N2CCCC(N)C2)nc2c1c(=O)n(Cc1nc(C)c3ccccc3n1)c(=O)n2C (configuration not stated) inactive

Test call for this molecule, please: CCc1cccc(CC)c1-n1c(C=C(C)C)c(C(=O)N2CCNCC2)cc(-c2nc(-c3ccc(C(F)(F)F)cc3)cs2)c1=O inactive

Test call for this molecule, please: Cc1nc2cc(C(=O)NCc3ccccn3)nn2c(C)c1Cc1cccc(Cl)c1 inactive

Test call for this molecule, please: COc1ccccc1N1CCN(CC(C(=O)NC(C)(C)C)c2ccccc2)CC1 (configuration not stated) inactive

Test call for this molecule, please: O=C(O)C1=CO[C@@H](O[C@@H]2O[C@H](CO)[C@@H](O)[C@H](O)[C@H]2O)[C@@H]2C(CO)=CC[C@H]12 inactive

###

run-description: Primary qHTS for inhibitors of nuclear receptor binding SET domain protein 2 (NSD2) in an RCH-ACV wild type WT cells (2C) (AID 1645877); also: nearly all actives have a fitted effect of over 70% in size
condition-notes: RCH-ACV (leukaemia line) NSD2 WT (2C) viability, CellTiter-Glo, 72 h; series mostly up to 44.9 µM
Results filed as inconclusive are left out. The source made the active and inactive calls. Calls come from the whole dose curve; as a rule, active = well fitted inhibition curve with a large enough effect; inconclusive = small, poorly fitted or top-dose-only effect; inactive = no such curve, though single readings can be large or run the other way.
Choose the fitting class; nothing outside t = active, f = inactive is accepted.

Test call for this compound, please: CC(=O)NC(C(=O)O[C@H]1CCC(C)(C)[C@@H]2CC=C3C(=O)OCC3(O)[C@@]12C)C(C)C (stereo partly specified) t

Test call for this compound, please: CNC(C)C(=O)NC(C(=O)N1CCCC1C(=O)Nc1snnc1-c1ccccc1)C1CCCCC1 (stereo unspecified) f

Test call for this compound, please: O=C(c1ccc(OC(F)F)c(C#Cc2ccccn2)c1)N1Cc2cccnc2C1 f

Test call for this compound, please: COc1ccccc1OCCNCC(O)CCOc1cccc2[nH]c3ccccc3c12 (stereo unspecified) t

Test call for this compound, please: NC(=O)N1CCC(CC(=O)N2CCC(C3c4ncc(Br)cc4CCc4cc(Cl)cc(Br)c43)CC2)CC1 (stereo unspecified) t

Test call for this compound, please: C[C@@H]1O[C@@H](O[C@H]2[C@H](OC(=O)[C@]34CCC(C)(C)C[C@H]3C3=CCC5[C@@]6(C)C[C@H](O)[C@H](O[C@@H]7O[C@H](CO)[C@@H](O)[C@H](O)[C@H]7O)[C@](CO)(C(=O)O)C6CC[C@@]5(C)[C@]3(C)C[C@H]4O)OC[C@H](O)[C@@H]2O)[C@H](O)[C@H](O)[C@H]1O[C@@H]1OC[C@@H](O)[C@H](O[C@@H]2OC[C@](O)(CO)[C@H]2O)[C@H]1O (stereo partly specified) t

###

run-description: Primary fluorescence-based thiol-reactive (MSTI) qHTS assay for identification of artifact compounds. (AID 1845221); also: nearly all actives have a fitted effect of over 65% in size
condition-notes: MSTI thiol-reactivity probe, 1 h; series mostly up to 53.8 µM
Records with an inconclusive call do not appear. Calls of active or inactive are those of the source. Calls come from the whole dose curve; as a rule, active = well fitted inhibition curve with a large enough effect; inconclusive = small, poorly fitted or top-dose-only effect; inactive = no such curve, though single readings can be large or run the other way.
Choose the fitting class; nothing outside active, inactive is accepted.

Test call for this compound, please: COC(=O)C(Cc1ccc(OCCn2c(=O)sc3cc(C(=O)c4ccccc4)ccc32)cc1)C(=O)OC inactive

Test call for this compound, please: C=C(C(=O)O[C@H]1C/C(C)=C/CC/C(CO)=C/[C@H]2OC(=O)C(=C)[C@H]12)C(O)CO (stereo partly drawn) inactive

Test call for this compound, please: CC(=O)N1CCN(CCOc2ccc(C3CCN(C4=Nn5c(nnc5C(F)(F)F)CC4)CC3)cc2)CC1 inactive

Test call for this compound, please: COc1ccc2cc3c(NC(=O)c4ccco4)nn(C)c3nc2c1 inactive

Test call for this compound, please: C=C1C(=O)O[C@@H]2[C@H]1CC(=O)[C@H](C)[C@@](O)(C(=O)/C=C/C)[C@H]2OC(=O)C(C)CC (stereo partly drawn) inactive

Test call for this compound, please: O=C(c1cc(Cc2n[nH]c(=O)c3ccccc23)ccc1F)N1CCCNCC1 inactive

Test call for this compound, please: C/C=C/C1=CC2=C(CO1)C(=O)C(C)(OC(=O)c1c(C)cc(O)cc1OC)C(O)C2 (stereo not drawn) inactive

Test call for this compound, please: CC(O)(C(=O)O)C1CCC2(C)C1CCC1(C)C2CCC2C3(C)CCC(O)C(C)(COC4OC(CO)C(O)C(O)C4O)C3CCC21C (stereo not drawn) inactive

Test call for this compound, please: COc1ccc(C#Cc2ccc(C(=O)N3CCC[C@@H](O)C3)c(F)c2)cc1 inactive

Test call for this compound, please: NS(=O)(=O)Nc1ncnc(OCCOc2ncc(Br)cn2)c1-c1ccc(Br)cc1 inactive

Test call for this compound, please: C=C1C(=O)OC2/C=C(/C)C3=CC(=O)C(C)(CC(OC(=O)/C(C)=C/COC(C)=O)C12)O3 (stereo not drawn) active

Test call for this compound, please: COc1cc(N2CCC(O)CC2)ccc1Nc1nc(Nc2ccccc2S(=O)(=O)C(C)C)c2[nH]cnc2n1 active

Test call for this compound, please: CC1OC2OC(=O)C3(C)CC4C5(CO5)C5=CC(=O)OC(C)(C)C5=CC(=O)C4(C)C(C1=O)C23 (stereo not drawn) active

Test call for this compound, please: COc1cc(O)c2c(c1)C1OC1C[C@H](O)[C@H](O)C(=O)/C=C\C[C@H](C)OC2=O (stereo partly drawn) inactive

Test call for this compound, please: CC#CCn1c(N2CCCC(N)C2)nc2c1c(=O)n(Cc1nc(C)c3ccccc3n1)c(=O)n2C (stereo not drawn) inactive

Test call for this compound, please: CNCCN1CCC(c2cc(CN(C)C(=O)c3cccc(Oc4ccccc4)c3)ccn2)CC1 inactive

Test call for this compound, please: C=C1C(=O)OC2CC3(C)C(O)C(=O)C=C(C)C3CC12 (stereo not drawn) active

Test call for this compound, please: O=S(=O)(N[C@H]1CCCC[C@@H]1N1CCOCC1)c1ccc(Cl)cc1 inactive
